Collected Kd values appear next to each entry.
# TARGET: Hsp90α (Homo sapiens (Human))
# METHOD DESCRIPTION: Fluorescence polarization assay (FITC-GDA tracer displacement)
# Assay type: binding
# CONDITION INFO: fluorescence polarization

| COMPOUND | Kd |
| --- | --- |
| CC(C)c1cc(C(=O)N2Cc3ccccc3C2)c(O)cc1CBr | 4.98 µM |
| CNCc1cc(O)c(C(=O)N2Cc3ccccc3C2)cc1C(C)C | > 100 µM |
| CC(C)c1cc(C(=O)N2Cc3ccccc3C2)c(O)c2c1CNC2=O | ≥ 10 µM |
| CC(C)c1cc(C(=O)N2Cc3ccccc3C2)c(O)c2c1CCC2=O | 9.3 µM |
| CC(C)c1cc(C(=O)N2Cc3ccccc3C2)c(O)c2nc[nH]c12 | ≥ 100 µM |
| CC(C)c1cc(C(=O)N2Cc3ccccc3C2)c(O)c2c1C1C=NNC1O2 (stereo not drawn) | ≥ 10 µM |
| CCC1Cc2c(C(C)C)cc(C(=O)N3Cc4ccccc4C3)c(O)c2C1=O (stereo not drawn) | ≥ 10 µM |
| CC1Cc2c(C(C)C)cc(C(=O)N3Cc4ccccc4C3)c(O)c2C1=O (stereo not drawn) | ≥ 10 µM |
| CC(C)c1ccc(O)c(C(=O)N2Cc3ccccc3C2)c1 | 3.21 µM |
| CC(C)c1cc(C(=O)N2Cc3ccccc3C2)c(O)cc1CC#N | 2.28 µM |
| CCCC1Cc2c(C(C)C)cc(C(=O)N3Cc4ccccc4C3)c(O)c2C1=O (stereo not drawn) | ≥ 100 µM |
| CC(C)c1cc(C(=O)N2Cc3ccccc3C2)c(O)cc1CCl | > 100 µM |
| CCN1Cc2c(C(C)C)cc(C(=O)N3Cc4ccccc4C3)c(O)c2C1=O | ≥ 10 µM |
| CCc1cc(O)c(C(=O)N2Cc3ccccc3C2)cc1C(C)C | > 50 µM |
| CC(C)c1cc(C(=O)N2Cc3ccccc3C2)c(O)c2cn[nH]c12 | 82.5 µM |
| COCc1cc(O)c(C(=O)N2Cc3ccccc3C2)cc1C(C)C | > 50 µM |
| CC(C)c1cc(C(=O)N2Cc3ccccc3C2)c(O)cc1N | 0.46 µM |
| CC(C)c1cc(C(=O)N2Cc3ccccc3C2)c(O)cc1CO | 4.21 µM |

###

# Tested on: MCF-7
# METHOD DESCRIPTION: Anti-proliferation activity
# Format: cell-based
# CONDITION INFO: Homo sapiens, MCF7
pIC50: −log10 of the molar value.
Collected pIC50 values appear next to each entry.

| MOLECULE | TARGET | pIC50 |
| --- | --- | --- |
| CC(C)c1cc(C(=O)N2Cc3ccc(F)cc3C2)c(O)c2cnoc12 | MCF-7 | 4.78 |
| CC(C)c1cc(C(=O)N2Cc3ccccc3C2)c(O)c2cnoc12 | MCF-7 | 4.55 |
| CC(C)c1cc(C(=O)N2Cc3ccccc3C2)c(O)c2[nH]ncc12 | MCF-7 | 4.72 |
| CC(C)c1cc(C(=O)N2Cc3ccccc3C2)c(O)c(CO)c1O [drawing 45] | MCF-7 | 4.86 |
| CC(C)c1cc(C(=O)N2Cc3ccc(F)cc3C2)c(O)c(CO)c1O | MCF-7 | 4.88 |
